- STATED_CONDITIONS: in acetone, 303 K
REPORTED_PROPERTY: solubility (mole fraction)
Lab note: write the figure by itself, no unit.

For the compound "Cc1cccc(Nc2ccccc2C(=O)O)c1C" , give its measured solubility (mole fraction) value.
0.0055

----------
- STATED_CONDITIONS: in acetone, 298 K
REPORTED_PROPERTY: solubility (mole fraction)
Lab note: write the figure by itself, no unit.

For the compound "Cc1cccc(Nc2ccccc2C(=O)O)c1C" , give its measured solubility (mole fraction) value.
0.0054

----------
- STATED_CONDITIONS: in cyclohexane, 323 K
REPORTED_PROPERTY: solubility (mole fraction)
Lab note: write the figure by itself, no unit.

For the compound "Cc1cccc(Nc2ccccc2C(=O)O)c1C" , give its measured solubility (mole fraction) value.
0.0016

# credit: BigSolDB 2.1
